Source: PubChem BioAssay AID1903

# tested_target: Large T antigen (Simian virus 40) (UniProt P03070)
# Sequence (P03070 whole entry, looked up): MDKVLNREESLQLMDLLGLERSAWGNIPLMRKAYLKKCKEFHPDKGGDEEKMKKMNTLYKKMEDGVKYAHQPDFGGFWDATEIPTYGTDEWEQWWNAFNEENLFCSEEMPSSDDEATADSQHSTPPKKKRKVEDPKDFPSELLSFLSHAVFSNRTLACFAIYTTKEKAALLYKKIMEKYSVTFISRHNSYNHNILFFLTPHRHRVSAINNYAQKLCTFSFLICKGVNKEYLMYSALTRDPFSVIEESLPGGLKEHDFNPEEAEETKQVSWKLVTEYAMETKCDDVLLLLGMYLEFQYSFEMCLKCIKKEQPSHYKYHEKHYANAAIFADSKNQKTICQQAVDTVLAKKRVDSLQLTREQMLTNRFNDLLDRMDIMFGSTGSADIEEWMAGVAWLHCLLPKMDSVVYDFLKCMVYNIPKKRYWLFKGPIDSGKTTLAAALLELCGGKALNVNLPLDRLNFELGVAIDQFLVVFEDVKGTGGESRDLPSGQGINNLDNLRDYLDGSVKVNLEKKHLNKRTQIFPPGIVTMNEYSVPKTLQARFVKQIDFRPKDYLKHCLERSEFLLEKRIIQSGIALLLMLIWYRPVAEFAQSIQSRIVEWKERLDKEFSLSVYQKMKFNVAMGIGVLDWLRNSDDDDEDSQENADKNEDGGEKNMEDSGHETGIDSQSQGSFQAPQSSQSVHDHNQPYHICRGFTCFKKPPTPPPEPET
# protocol_notes: SV40 large T antigen inhibitors, biochemical (AID 1903)
# assay_context: SV40 large T antigen ATPase/helicase inhibition assay; at 20 µM; hits give high values
In all, about 310,000 compounds went through this assay and about 1,200 (0.39%) were called active. These entries were drawn from the full list. Entries with a potency or affinity are not part of this list.
quantity_name: inhibition (%)
Write the value in % as a bare number.

Q: Return inhibition (reported value) for this molecule: Cn1c(C(=O)NCCOc2ccccc2Cl)cc(=O)n(C)c1=O
Ans: 3.15

Q: Using the record for Cc1cc(C)n(CCc2nc(-c3ccc(C)o3)cs2)n1 , state its measured inhibition.
Ans: 28.1

* * *

# tested_target: Large T antigen (Simian virus 40) (UniProt P03070)
# protocol_notes: SV40 large T antigen inhibitors, biochemical (AID 1903)
# assay_context: SV40 large T antigen ATPase/helicase inhibition assay; at 20 µM; hits give high values
Hit rate of the full screen: of about 310,000 compounds, about 1,200 (0.39%) were called active. These entries were drawn from the full list. Entries with a potency or affinity are not part of this list.
Form field: inhibition (one value per entry).
Just the number please, in %, no unit attached.

# annotated cases, reported inhibition shown
compound | inhibition [%]
N#CC1=C2SCN(c3ccccc3)CN2C(=O)CC1c1cccs1 (stereo not given) | 25.3
CCc1ccc(NC(=O)C2CCN(S(=O)(=O)c3ccc4c(c3)N(C(C)=O)CCO4)CC2)cc1 | -0.74
COc1ccc(OC)c(C2CC(=O)N3CN(c4cccc(Cl)c4)CSC3=C2C#N)c1 (stereo not given) | 21.8
COc1cccc(C2CC(=O)N3CN(c4cccc(Cl)c4C)CSC3=C2C#N)c1OC (stereo not given) | 25.5

Please turn your attention to the following entry.
Q: Read the entry C/C(=C1/SC(N2CCOCC2)=NC1=O)c1ccc(Br)cc1 and write its reported inhibition.
Ans: -0.65

* * *

Entries annotated with measured inhibition
# tested_target: Large T antigen (Simian virus 40) (UniProt P03070)
# protocol_notes: SV40 large T antigen inhibitors, biochemical (AID 1903)
# assay_context: SV40 large T antigen ATPase/helicase inhibition assay; at 20 µM; hits give high values
In all, about 310,000 compounds went through this assay and about 1,200 (0.39%) were called active. Not all results are given here. Potency and affinity values are given separately.
Could you give me the number in %? Just the number is fine.

Sample answers from the record:
compound | value_reported
COc1ccc(OCc2cc(C(=O)NC3CCOCC3)no2)c2ccccc12 | 12
Cc1ccccc1CNCCCSc1ncccn1 | 11.1
Cc1ccc(S(=O)(=O)N2CCN(C(=O)COC(=O)CCOc3cc(C)ccc3C)CC2)cc1 | 7.19
COc1cccc(C(=O)NC2CC3CCCC(C2)N3CC(=O)Nc2ccccc2)c1 (stereo not given) | 34
O=C(CN1C2CCCC1CC(NC(=O)c1ccccc1)C2)NC1CC1 (stereo not given) | 6.22

Q: Give inhibition for Cc1ccc(-c2nnc(CCC(=O)N(C)Cc3nccs3)o2)s1
Ans: -8.55

Q: Recall and state the measured inhibition for O=C(O)/C=C/c1ccc(S(=O)(=O)Nc2ccc(C(=O)NCC(=O)O)cc2)cc1 .
Ans: -0.46

Q: Report measured inhibition; entry is Oc1ccccc1N=Cc1sc2ccccc2c1Cl
Ans: 19.7

Q: Provide inhibition value for the following compound: Nc1ccc(S(=O)(=O)NNC(=O)C(=O)NNc2ccccn2)cc1
Ans: 11.5

Q: Note down inhibition recorded for O=C(CN1C2CCCC1CC(NC(=O)c1ccccc1)C2)Nc1ccccc1 (stereo not given)
Ans: -14.7
